Task for the reader: assign each of the following molecules its reported GI50.
test system: NCI-H522; assay: NCI tumour cell line growth inhibition, 48 h
Where a name gives a salt, the structure may show the parent alone. The source made the active and inactive calls. Cut-off read from the data, not from the text of the source: active = GI50 up to about 1.1 µM and inactive = higher.

Below, each entry is followed by its recorded GI50 result.
O=c1cccccc1NCCCCCCCNc1cccccc1=O : 13.8 µM (inactive)
Nc1nc(N)c2ncn(Cc3ccccc3CO)c2n1 : > 100 µM (inactive)
Oc1cc(-c2cccc(Br)c2)nc2cc3c(cc12)OCO3 : 3.93 µM (inactive)
CC1CC2OC(=O)C3CC(O)CC(=C23)[C@@]12C[C@@H](c1ccoc1)OC2=O (some centres undefined) : > 100 µM (inactive)

Hey, quick one: what's GI50 for each of these?
1. CN1CCN(C(=S)N(C(=O)c2cccs2)c2ccccc2)CC1
2. O=C(O)CCN(CCC(=O)O)c1ccc(/C=C2\SC(=S)NC2=O)cc1
3. C=C1CC(OC)(C(O)C(=O)N[C@H]2OCO[C@H]3C2O[C@H](C[C@H](O)COC)C(C)(C)C3OC)O[C@H](C)[C@@H]1C (some centres undefined)
4. CCC(=O)/C=C/c1ccccc1

1: > 100 µM (inactive); 2: 91.6 µM (inactive); 3: < 0.00773 µM (active); 4: > 100 µM (inactive)

Hey, quick one: what's GI50 for each of these?
1. C=C1CC2(C[C@@H](c3ccccc3)O[C@@H](c3ccccc3)C2)OC1=O (some centres undefined)
2. COc1ccc(-c2nc(O)c3ccccc3n2)cc1

["1.48 µM (inactive)", "52.7 µM (inactive)"]

Hey, quick one: what's GI50 for each of these?
1. CS(=O)(=O)CCC(N)P(=O)(O)O (centres undefined)
2. Cc1ccc(CCCCCOc2ccc(C3=NCCO3)cc2)s1
3. CC(C)(Br)C(=O)/C=C/c1ccccc1
4. Cc1nc(Nc2ccccc2)sc1C(=O)NNC(N)=O
5. COc1ccc(O)c(/C=N/CCC/N=C/c2cc(OC)ccc2O)c1
6. CC(=O)N(C(C)=O)n1c(Cc2ccc(C)cc2)nn(C(C)=O)c1=O

1. > 100 µM (inactive)
2. > 100 µM (inactive)
3. 0.136 µM (active)
4. > 100 µM (inactive)
5. 46 µM (inactive)
6. > 100 µM (inactive)

Hey, quick one: what's GI50 for each of these?
1. O[C@]12C=C(c3nccc4c3[nH]c3ccccc34)[C@@H]3CCN(CCCC/C=C\CC1)C[C@@]31CC3/C=C\CCCCN3[C@H]12 (some centres undefined)
2. N#CC(C(=O)C(=O)Nc1ccc(Cl)c(Cl)c1)c1ccc(Cl)cc1 (centres undefined)
3. CC(C)N(C(=O)C12C3C4C5(C#N)C3C1(C#N)C5C42C#N)C(C)C (centres undefined)
4. COC(=O)C12CC(c3ccccc31)C1C(=O)OC(=O)C12 (centres undefined)
5. CN(C)CCOC(=O)COc1ccc(Cl)cc1 [CENTROPHENOXINE HYDROCHLORIDE]
6. c1ccc2c(c1)-c1ccccc1C2N1CC2CCC(CC2)C1

["0.263 µM (active)", "25.2 µM (inactive)", "> 100 µM (inactive)", "> 100 µM (inactive)", "> 100 µM (inactive)", "10.5 µM (inactive)"]

* * *

tested on: M14; assay: NCI tumour cell line growth inhibition, 48 h
Activity calls are given as the source filed them. No stated cut-off is given here; in the data, active = GI50 up to about 1.1 µM and inactive = higher.
Could you please pick one outcome from this set? yes (1) (active), no (0) (inactive)

See these solved cases before continuing.
Cc1ccc(Nc2nc(NNC(=O)Cc3ccccc3)nc(NNC(=O)c3ccncc3)n2)cc1 : no (0)
O=C1CC2(CCNCC2)C(=O)N1N1CCCCC1 : no (0)
O=C(CSc1nc(-c2ccccc2)c(-c2ccccc2)[nH]1)N/N=C/c1ccc([N+](=O)[O-])cc1 : no (0)

Status in this test for COC(=O)C12CC(c3ccccc31)C1C(=O)OC(=O)C12 (stereo unspecified) ? no (0)

Status in this test for CC(=O)OCCOCNC(=S)N/N=C/c1ccc2ccccc2n1 ? no (0)
